Assay: Biodistribution of 18F-labelled tracers in rats
Format: in vivo
Conditions: SD rats; throughout 15 min to 4 h
Protocol: [^18F]Fluoride, in the form of H^18F, was produced by the ^18O(p,n)^18F nuclear reaction by bombardment of ^18O-enriched water target. […] The biodistribution of PBR132* was undertaken in SD rats and analysis up to 4 h p.i. in the brain and peripheral tissues was performed. The specificity and selectivity of the tracer were assessed by pre-treatment with PBR and Central benzodiazepine receptor (CBR) specific ligands (1 mg/kg) 5 min prior to injection of PBR132*. […]
quantity_name: Blood activity level / concentration in the blood over the 4 h study period

[
  {
    "compound": "CCN(CC)C(=O)Cc1c(-c2ccc(C(C)(C)C)cc2)nc2ccc([18F])nn12 [PBR132*]",
    "observed_measurement": "low"
  },
  {
    "compound": "CCN(CC)C(=O)Cc1c(-c2ccc(OCCF)cc2)nc2ccc(Cl)cn12 [PBR102]",
    "observed_measurement": "0.20%"
  },
  {
    "compound": "CCN(CC)C(=O)Cc1c(-c2ccc(OCCF)cc2)nn2c(C)cc(C)nc12 [PBR099]",
    "observed_measurement": "0.23%"
  }
]
